System: spindle assembly checkpoint
ASSAY REMARKS: SAC-Formation - Nocodazole-Induced Assay
Assay type: cell-based
PROTOCOL CONDITIONS: Homo sapiens; HeLa cells, nocodazole 0.1 μg/ml, 24 h, phosphorylated histone H3 on serine 10
Text: The spindle assembly checkpoint assures the proper segregation of chromosomes during mitosis. Upon entry into mitosis, chromosomes begin to condensate which is accompanied by the phosphorylation of histone H3 on serine 10. Dephosphorylation of histone H3 on serine 10 begins in anaphase and ends at early telophase. […] The mitotic breakthrough can be detected by the decrease of cells with phosphorylation of histone H3 on serine 10. […]
Reported IC50 values for the following molecules.

• CCOc1ccc(NC(=O)c2c(C)nsc2Nc2cc(C#N)ccn2)cn1 [Example 143] = > 20 µM
• CCc1ccccc1NC(=O)c1c(C)nsc1Nc1ncccn1 [Example 137] = > 20 µM

Problem: Report IC50 for COC(=O)c1ccnc(Nc2snc(C)c2C(=O)Nc2ccc(OC)nc2)c1 [Example 140] please.
Solution: > 20 µM

----------
Reported IC50 values for the following molecules.
Tested on: spindle assembly checkpoint
ASSAY REMARKS: SAC-Formation - Nocodazole-Induced Assay
Format: cell-based
PROTOCOL CONDITIONS: Homo sapiens; HeLa cells, nocodazole 0.1 μg/ml, 24 h, phosphorylated histone H3 on serine 10
Note to self: number, then unit, no commentary.

The examples below pair each entry with its known result.
- Cc1nsc(Nc2cncc(Cl)n2)c1C(=O)Nc1ccc(F)c(F)c1: 94 nM
- Cc1nsc(Nc2cnc(C(=O)N(C)C)cn2)c1C(=O)Nc1ccc(F)c(F)c1: 1100 nM

Now consider the entry below.
Problem: Kindly state the measured IC50 obtained for Cc1nsc(Nc2cncc(-n3cccn3)n2)c1C(=O)Nc1ccc(F)c(F)c1 with spindle assembly checkpoint.
Solution: 97 nM

----------
Tested on: HeLa
ASSAY REMARKS: Proliferation assay (crystal violet), HeLa
Assay type: cell-based
PROTOCOL CONDITIONS: Homo sapiens, 96 h, 4 days, read-out: Inhibition of proliferation IC50 HeLa
Reported IC50 values for the following compounds.
Quick reminder: number only, in nM, skip the unit.

Problem: Report IC50 for Cc1nsc(Nc2cnc3ccccc3n2)c1C(=O)Nc1ccc(OC2CCCCC2)nc1 [Example 115] please.
Solution: 1300

----------
System: HeLa
ASSAY REMARKS: Proliferation assay (crystal violet), HeLa
Assay type: cell-based
PROTOCOL CONDITIONS: Homo sapiens, 96 h, 4 days, read-out: Inhibition of proliferation IC50 HeLa
ENDPOINT: log10 of IC50 (log10 of the value in nM)
Values are log10 of IC50 in nM.

* COc1ccc2nc(Nc3snc(C)c3C(=O)Nc3ccc(OC)nc3)sc2c1 [Example 87] | 3.45
* CCc1ccccc1NC(=O)c1c(C)nsc1Nc1nc2ccccc2o1 [Example 11] | 3.57
* CCOC(=O)c1cnn2ccc(Nc3snc(C)c3C(=O)Nc3ccc(F)c(F)c3)nc12 [Example 55] | 2.96
* Cc1nsc(Nc2nc3c(C(F)(F)F)cccc3s2)c1C(=O)Nc1ccc(Cl)c(F)c1 [Example 53] | 3.00

Now consider the entry below.
Problem: Report log10 of IC50 for Cc1nsc(Nc2cnc(Br)cn2)c1C(=O)Nc1ccc(F)c(F)c1 [Example 77] please.
Solution: 2.30
